cell growth (% of control) at 48 h, 10 µM values by entry
Test: Cytotoxicity against human WI38 cells assessed as growth inhibition at 10 uM after 48 hrs by CellTiter-Glo assay relative to control; values are per cent of control
Settings: WI38 cells
Your answer should be a plain number; it is taken to be in %.

Reference set (8 entries):
NC(=S)N/N=C/c1ccccc1O
108
NC(=S)N/N=C/c1ccc2ncccc2c1
143
CSc1ccc(/C=N/NC(N)=S)cc1
107
N/C(S)=N/N=C/c1ccc([N+](=O)[O-])cc1
122
COc1cc(/C=N/NC(N)=S)cc(OC)c1OC
111
COc1cccc(OC)c1/C=N/NC(N)=S
114
NC(=S)N/N=C/c1ccc(N)cc1
121
NC(=S)N/N=C/c1csc2ccccc12
95.3

Name the reported cell growth (% of control) at 48 h, 10 µM value associated with the compound NC(=S)N/N=C/C(O)C(O)C(O)CO (stereo not given) 95.7

Would you kindly share the measured cell growth (% of control) at 48 h, 10 µM for `NC(=S)N/N=C/c1ccc(OCc2ccc(Cl)c(Cl)c2)cc1` ? 89.4

Which cell growth (% of control) at 48 h, 10 µM is reported for this compound? `NC(=S)N/N=C/c1ccco1` 106

Which cell growth (% of control) at 48 h, 10 µM value is on record for `COc1ccc(-c2cccc(/C=N/NC(N)=S)c2)cc1OC` ? 106

Sample `C/C(=N\NC(N)=S)c1ccc(O)cc1` — what was its cell growth (% of control) at 48 h, 10 µM? 101

Which value of cell growth (% of control) at 48 h, 10 µM has been reported for `NC(=S)N/N=C/c1cccc(-c2ccccc2)c1` in the records? 111

Returns the measured cell growth (% of control) at 48 h, 10 µM for the input compound. Input: `NC(=S)N/N=C/c1cccc(-c2ccc3c(c2)OCO3)c1` 91.9

* * *

Overview of recorded cell growth (% of control) at 48 h, 10 µM for various molecules
Experiment: Cytotoxicity against human WI38 cells assessed as growth inhibition at 10 uM after 48 hrs by CellTiter-Glo assay relative to control; values are per cent of control
Details: WI38 cells
Enter your answer as a number in %; do not include the unit.

N/C(S)=N/N=C/c1ccc(Cl)c(Cl)c1
107
NC(=S)N/N=C/C=C/c1ccccc1
82.8
NC(=S)N/N=C/c1ccccc1[N+](=O)[O-]
120
Cc1ccsc1/C=N/NC(N)=S
85.4
N/C(S)=N/N=C/c1cccc(Br)c1
120
C/C(=N\NC(N)=S)c1ccc(N)cc1
83.1

Read the next record carefully.
Given the entry `NC(=S)N/N=C/c1ccc(-c2ccccc2)cc1` , report its measured cell growth (% of control) at 48 h, 10 µM. 104

* * *

Assay: Cytotoxicity against human THP1 cells assessed as viable cells at 100 uM after 72 hrs by MTT assay relative to control
Type: cell-based, THP-1
Details: read-out: Activity
Measured attribute: viability at 72 h, 100 µM

Entry under review: `COc1ccc(-c2cccc(/C=N/NC(N)=S)c2)cc1OC` . Reported viability at 72 h, 100 µM? 40.9%

Query (compound): `N/C(S)=N/N=C/c1cccc(Br)c1` ; field requested: viability at 72 h, 100 µM 79.3%

Reported viability at 72 h, 100 µM for `NC(=S)N/N=C/c1ccc(N)cc1` : what is it? 74.4%

Returns the measured viability at 72 h, 100 µM for the input compound. Input: `N/C(S)=N/N=C/c1ccc(Cl)c(Cl)c1` 56.4%

May I ask what viability at 72 h, 100 µM has been recorded for `NC(=S)N/N=C/c1ccc(-c2ccccc2)cc1` ? 46.4%

Which viability at 72 h, 100 µM is reported for this compound? `NC(=S)N/N=C/c1ccccc1[N+](=O)[O-]` 59.7%

# lookup: viability at 72 h, 100 µM of `CSc1ccc(/C=N/NC(N)=S)cc1` 35.7%

// lookup viability at 72 h, 100 µM for `C/C(=N\NC(N)=S)c1ccc(O)cc1` 72.2%

* * *

Molecular target: CYP2C9 (Homo sapiens)
Sequence (P11712 whole entry): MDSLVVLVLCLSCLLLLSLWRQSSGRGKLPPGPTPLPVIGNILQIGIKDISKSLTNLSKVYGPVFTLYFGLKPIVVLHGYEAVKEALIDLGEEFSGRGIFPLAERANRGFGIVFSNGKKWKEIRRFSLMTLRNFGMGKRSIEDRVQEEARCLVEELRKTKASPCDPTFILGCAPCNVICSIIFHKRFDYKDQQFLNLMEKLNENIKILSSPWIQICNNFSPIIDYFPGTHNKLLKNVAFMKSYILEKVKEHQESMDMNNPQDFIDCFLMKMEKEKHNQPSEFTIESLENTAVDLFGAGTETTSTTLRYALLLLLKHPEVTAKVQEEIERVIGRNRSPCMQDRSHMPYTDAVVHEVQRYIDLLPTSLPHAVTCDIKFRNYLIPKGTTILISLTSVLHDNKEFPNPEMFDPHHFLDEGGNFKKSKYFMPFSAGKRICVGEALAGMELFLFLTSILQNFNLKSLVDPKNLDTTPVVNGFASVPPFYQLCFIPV
Experiment: Inhibition of human microsomal CYP2C9 expressed in baculovirus infected BTI-TN-5B1-4 cells at 10 uM incubated for 30 mins by luciferase assay relative to control
Format: ADME
Item-by-item account of inhibition at 0.5 h, 10 µM
I only need the number, in %, no unit after it.

Here's what some known entries look like.
NC(=S)N/N=C/c1ccccc1O
-6.44
COc1cc(/C=N/NC(N)=S)ccc1O
-7.31
COc1ccccc1/C=N/NC(N)=S
-19.8
N/C(S)=N/N=C/c1ccc([N+](=O)[O-])cc1
-3.66
NC(=S)N/N=C/c1ccc2ncccc2c1
3.32
COc1ccc(-c2cccc(/C=N/NC(N)=S)c2)cc1OC
56.8

Entry `NC(=S)N/N=C/c1ccc(-c2ccccc2)cc1` has what inhibition at 0.5 h, 10 µM? 98.4

Data request, read-out inhibition at 0.5 h, 10 µM, for `CN(C)c1ccc(/C=N/N=C(/N)S)c2ccccc12` 10

What inhibition at 0.5 h, 10 µM value was documented for this compound, `NC(=S)N/N=C/c1cccc(-c2ccccc2)c1` ? 14.7

Bench note: what inhibition at 0.5 h, 10 µM did `NC(=S)N/N=C/c1cccc(-c2ccc3c(c2)OCO3)c1` show? 45.3

Record request: inhibition at 0.5 h, 10 µM value, item NC(=S)N/N=C/C(O)C(O)C(O)CO (stereo not drawn) -19.7

Looking for the measured inhibition at 0.5 h, 10 µM of `NC(=S)N/N=C/c1ccccc1[N+](=O)[O-]` , can you help? -4.92

# get_value(readout='inhibition at 0.5 h, 10 µM', item= `NC(=S)N/N=C/c1ccc(N)cc1` ) 3.06

* * *

Assay: Cytotoxicity against human THP1 cells assessed as decrease in viable cells after 72 hrs by MTT assay
Type: cell-based, THP-1
Settings: THP1 cells
Documented CC50 at 72 h across a set of compounds
Report the figure along with its unit, number first.

NC(=S)N/N=C/c1ccc(OCc2ccc(Cl)c(Cl)c2)cc1
82 µM

What value of CC50 at 72 h has been recorded for this entry: C[C@@H]1[C@H](O)[C@@H](C)/C=C/C=C/C=C/C=C/C=C/C=C/C=C/[C@H](O[C@@H]2O[C@H](C)[C@@H](O)[C@H](N)[C@@H]2O)C[C@@H]2O[C@](O)(C[C@@H](O)C[C@@H](O)[C@H](O)CC[C@@H](O)C[C@@H](O)CC(=O)O[C@H]1C)C[C@H](O)[C@H]2C(=O)O [AMPHOTERICIN B] 16.9 µM

# query: CC50 at 72 h of entry N=C(N)c1ccc(OCCCCCOc2ccc(C(=N)N)cc2)cc1 [PENTAMIDINE] 10 µM

What does the record list as CC50 at 72 h for CCCCCCCCCCCCCCCCOP(=O)([O-])OCC[N+](C)(C)C [MILTEFOSINE] ? 15 µM

* * *

In this section we review reported cytotoxicity at 6 h, 10 µM values for a set of compounds.
Assay: Cytotoxicity against human 786-O cells assessed as inhibition of mitochondrial viability at 10 uM after 6 hrs by CMXRos staining based assay relative to control
Type: cell-based, 786-0
Details: read-out: INH
Return type: number; implicit unit %.

// worked examples, cytotoxicity at 6 h, 10 µM included
C/C(=N\NC(N)=S)c1ccc(O)cc1
5.9
NC(=S)N/N=C/c1ccc(-c2ccccc2)cc1
16.1
NC(=S)N/N=C/C(O)C(O)C(O)CO (stereo not drawn)
-1.92
C/C(=N\NC(N)=S)c1ccc(N)cc1
-5.04
NC(=S)N/N=C/c1csc2ccccc12
12.6

Report cytotoxicity at 6 h, 10 µM for `NC(=S)N/N=C/c1ccc(OCc2ccc(Cl)c(Cl)c2)cc1` please. 23.4

Entry `NC(=S)N/N=C/c1ccccc1[N+](=O)[O-]` has what cytotoxicity at 6 h, 10 µM? -3.98

Looking for the measured cytotoxicity at 6 h, 10 µM of `N/C(S)=N/N=C/c1ccc(Cl)c(Cl)c1` , can you help? 5.87

Reported cytotoxicity at 6 h, 10 µM for `CSc1ccc(/C=N/NC(N)=S)cc1` : what is it? -10.8

GET /values?readout=cytotoxicity at 6 h, 10 µM&item= `COc1cc(/C=N/NC(N)=S)cc(OC)c1OC` 4.79

Give the measured cytotoxicity at 6 h, 10 µM of `N/C(S)=N/N=C/c1ccc([N+](=O)[O-])cc1` . 0.08

Record request: cytotoxicity at 6 h, 10 µM value, item `NC(=S)N/N=C/C=C/c1ccccc1` -2.97

So what does the record say about cytotoxicity at 6 h, 10 µM for `NC(=S)N/N=C/c1cccc(-c2ccc3c(c2)OCO3)c1` ? 15.7

* * *

Molecular target: hERG (KCNH2) (Homo sapiens, UniProt Q12809)
Sequence (Q12809 whole entry): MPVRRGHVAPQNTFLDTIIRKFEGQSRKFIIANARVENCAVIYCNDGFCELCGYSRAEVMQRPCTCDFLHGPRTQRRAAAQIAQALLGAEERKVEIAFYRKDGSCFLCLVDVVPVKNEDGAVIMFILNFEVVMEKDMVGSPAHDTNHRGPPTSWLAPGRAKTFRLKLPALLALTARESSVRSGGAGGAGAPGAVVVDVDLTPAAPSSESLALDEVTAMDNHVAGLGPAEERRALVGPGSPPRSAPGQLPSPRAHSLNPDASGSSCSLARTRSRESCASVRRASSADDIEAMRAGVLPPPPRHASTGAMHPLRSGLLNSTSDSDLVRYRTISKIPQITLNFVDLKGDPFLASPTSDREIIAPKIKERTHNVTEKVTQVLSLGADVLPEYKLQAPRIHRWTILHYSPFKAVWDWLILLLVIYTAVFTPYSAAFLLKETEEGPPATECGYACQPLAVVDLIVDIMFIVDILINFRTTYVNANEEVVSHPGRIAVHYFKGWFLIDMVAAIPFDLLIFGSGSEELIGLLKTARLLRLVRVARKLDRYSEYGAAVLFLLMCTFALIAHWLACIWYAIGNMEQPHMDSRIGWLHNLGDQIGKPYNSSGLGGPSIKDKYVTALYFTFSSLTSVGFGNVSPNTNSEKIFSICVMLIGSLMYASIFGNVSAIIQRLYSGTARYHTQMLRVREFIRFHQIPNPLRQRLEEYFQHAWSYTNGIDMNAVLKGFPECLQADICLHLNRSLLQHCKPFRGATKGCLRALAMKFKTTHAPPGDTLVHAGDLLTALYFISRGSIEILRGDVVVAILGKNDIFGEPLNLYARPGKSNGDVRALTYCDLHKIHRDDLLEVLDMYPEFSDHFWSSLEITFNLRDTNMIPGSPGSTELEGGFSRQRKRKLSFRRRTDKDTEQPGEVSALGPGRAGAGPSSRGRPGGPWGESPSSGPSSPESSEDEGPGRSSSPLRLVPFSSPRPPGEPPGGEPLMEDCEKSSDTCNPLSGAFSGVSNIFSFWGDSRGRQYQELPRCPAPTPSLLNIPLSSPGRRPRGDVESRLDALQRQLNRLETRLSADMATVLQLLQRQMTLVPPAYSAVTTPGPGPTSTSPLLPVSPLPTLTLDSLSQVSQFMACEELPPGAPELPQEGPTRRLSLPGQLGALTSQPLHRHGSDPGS
Assay: Inhibition of human ERG at 10 uM incubated for 2 hrs by fluorescence polarisation assay relative to control
Measured attribute: inhibition at 2 h, 10 µM (%)
Dear colleague, please return just the value in %, with no unit written.

Consider the following illustrative entries.
COc1cccc(OC)c1/C=N/NC(N)=S
-1.27
COc1ccc(-c2cccc(/C=N/NC(N)=S)c2)cc1OC
22.4

What inhibition at 2 h, 10 µM appears in the records for this molecule with hERG (KCNH2) (Homo sapiens, UniProt Q12809)? `NC(=S)N/N=C/c1cccc(-c2ccccc2)c1` 5.99

Observed inhibition at 2 h, 10 µM on hERG (KCNH2) (Homo sapiens, UniProt Q12809) for `Cc1ccsc1/C=N/NC(N)=S` , please. -5.98

Please provide the recorded inhibition at 2 h, 10 µM for `NC(=S)N/N=C/c1ccccc1O` , tested on hERG (KCNH2) (Homo sapiens, UniProt Q12809). 4.46

Notebook entry, hERG (KCNH2) (Homo sapiens, UniProt Q12809) assay: inhibition at 2 h, 10 µM of `N/C(S)=N/N=C/c1cccc(Br)c1` = ? 10.7

Reference source: ChEMBL document CHEMBL4196006
